Data origin: patent US20170107179A1

- test_summary: Non-GLP monkey pharmacokinetics
- Type: in vivo
- experimental_context: cynomolgus monkey, plasma; cynomolgus monkeys, PO 10 mg/kg, average of 3
readout_kind: Cmax (ng/mL)
Report only the number, with the unit ng/mL understood.

Reported Cmax of `CN(C)[C@@H]1C(O)=C(C(N)=O)C(=O)[C@@]2(O)C(O)=C3C(=O)c4c(O)c5c(c(F)c4C[C@H]3C[C@@H]12)CN(C(C)(C)C)C5` : 1260

----------
Entries annotated with measured MIC90
- Tested on: Gram-negative and Gram-positive organisms (clinical isolates)
- test_summary: Broth microdilution MIC against clinical isolates (CLSI M7-A8), Table 9
- Type: cell-based
- experimental_context: Staphylococcus aureus, Staphylococcus aureus (MRSA PVL+), n=30; read-out: MIC90
Form field: result (number plus unit)

These solved cases illustrate the format of a correct answer.
structure_string	MIC90
CN(C)c1cc(NC(=O)CNC(C)(C)C)c(O)c2c1C[C@H]1C[C@H]3[C@H](N(C)C)C(O)=C(C(N)=O)C(=O)[C@@]3(O)C(O)=C1C2=O	0.12 µg/mL
C[C@@H](O)[C@H]1C(=O)N2C(C(=O)O)=C(S[C@@H]3CN[C@H](C(=O)Nc4cccc(C(=O)O)c4)C3)[C@H](C)[C@H]12	8 µg/mL
CCC[C@@H]1C[C@@H](C(=O)N[C@@H]([C@H]2O[C@H](SC)[C@H](O)[C@@H](O)[C@H]2O)[C@H](C)Cl)N(C)C1	0.12 µg/mL

The record that follows has no MIC90 shown yet.
The reported MIC90 of the compound `CC(=O)NC[C@H]1CN(c2ccc(N3CCOCC3)c(F)c2)C(=O)O1` was 2 µg/mL
